Reference source: patent US7714146B2

target: human c-KIT (Thr544-Val976) (Homo sapiens); construct: human c-KIT (Thr544-Val976); GST (N); purchased Cell Signaling Technology; host or cells: baculovirus expression system; assay: c-KIT kinase assay (HTScan kit, DELFIA); type: biochemical; settings: compound at 1 μM; read-out: c-KIT 1 μM, % of inhibition relative to control
Sequence (P10721 544-976): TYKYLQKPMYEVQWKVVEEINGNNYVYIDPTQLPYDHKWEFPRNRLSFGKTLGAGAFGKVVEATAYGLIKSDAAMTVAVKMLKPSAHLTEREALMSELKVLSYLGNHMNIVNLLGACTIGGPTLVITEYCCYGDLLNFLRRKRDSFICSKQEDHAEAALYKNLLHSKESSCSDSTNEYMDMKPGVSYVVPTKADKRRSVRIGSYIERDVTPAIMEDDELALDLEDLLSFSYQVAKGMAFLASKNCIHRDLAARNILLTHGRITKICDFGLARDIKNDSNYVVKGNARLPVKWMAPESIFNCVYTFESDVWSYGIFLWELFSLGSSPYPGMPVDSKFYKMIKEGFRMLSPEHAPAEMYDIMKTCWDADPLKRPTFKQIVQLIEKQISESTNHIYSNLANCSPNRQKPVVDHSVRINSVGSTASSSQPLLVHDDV
measurement kind: inhibition at 1 µM (%)
Answers are plain numbers, in %.

These solved cases illustrate the format of a correct answer.
[
  {
    "compound": "Cc1cc(C=C2C(=O)Nc3ccc(C(F)(F)F)cc32)c2ccccc(OCCCN(C)C)c1-2 [Compound 100]",
    "measured on": "human c-KIT (Thr544-Val976) (Homo sapiens)",
    "inhibition at 1 µM [%]": 48.1
  },
  {
    "compound": "Cc1cc(C)c2ccc(/C=C3/C(=O)N(Cc4ccccc4)c4ccccc43)c-2c(C)c1 [Compound 10]",
    "measured on": "human c-KIT (Thr544-Val976) (Homo sapiens)",
    "inhibition at 1 µM [%]": 8.4
  },
  {
    "compound": "Cc1cc(/C=C2/C(=O)Nc3ccc(F)cc32)c2ccccc(OCCCN(C)C)c1-2 [Compound 68]",
    "measured on": "human c-KIT (Thr544-Val976) (Homo sapiens)",
    "inhibition at 1 µM [%]": 34.4
  }
]

For every item in the list below, what is its measured inhibition at 1 µM?
1. O=C1Nc2ccc(F)cc2/C1=C\c1cc(Br)c2cccccc1-2 [Compound 51]
2. CCc1cc(C=C2C(=O)Nc3ccc(S(=O)(=O)NCCCN4CCN(C)CC4)cc32)c2cccccc1-2 [Compound 83]
3. Cc1cc(/C=C2/C(=O)Nc3ccccc32)c2cccccc1-2 [Compound 36]
4. CN(C)Cc1c(/C=C2/C(=O)Nc3ccc(F)cc32)cc2cccccc1-2 [Compound 59]
5. COC(=O)c1cc(/C=C2\C(=O)Nc3ccc(F)cc32)c2cccccc1-2 [Compound 76]

1: 73.9; 2: 19.6; 3: 49.2; 4: 24.2; 5: 28.2

====

Task for the reader: assign each of the following compounds its reported inhibition at 1 µM.
biological target: human VEGFR-2 (Val789-Val1356) (Homo sapiens, UniProt P35968); construct: human VEGFR-2 (Val789-Val1356); GST (N); purchased Cell Signaling Technology; host or cells: baculovirus expression system; assay: KDR kinase assay (HTScan VEGFR-2 kit, DELFIA); type: biochemical; details: compound at 1 μM; read-out: KDR 1 μM, % of inhibition relative to control
Sequence (P35968 789-1356): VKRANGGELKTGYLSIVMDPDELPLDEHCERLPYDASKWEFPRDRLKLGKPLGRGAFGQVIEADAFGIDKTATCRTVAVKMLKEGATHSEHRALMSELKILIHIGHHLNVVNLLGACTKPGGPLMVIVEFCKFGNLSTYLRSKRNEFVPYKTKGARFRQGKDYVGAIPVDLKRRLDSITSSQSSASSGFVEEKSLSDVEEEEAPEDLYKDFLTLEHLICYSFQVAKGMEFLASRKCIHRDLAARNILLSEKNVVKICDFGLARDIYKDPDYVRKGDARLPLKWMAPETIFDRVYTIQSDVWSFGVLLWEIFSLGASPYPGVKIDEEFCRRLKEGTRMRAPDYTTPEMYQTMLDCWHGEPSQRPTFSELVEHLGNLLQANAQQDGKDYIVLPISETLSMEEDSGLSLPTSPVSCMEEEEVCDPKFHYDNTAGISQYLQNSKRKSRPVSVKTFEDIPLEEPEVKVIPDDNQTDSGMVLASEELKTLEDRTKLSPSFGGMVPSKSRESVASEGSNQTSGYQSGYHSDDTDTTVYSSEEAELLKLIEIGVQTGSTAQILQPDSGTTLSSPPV
Give bare numbers, in %.

[
  {
    "smiles": "O=C1Nc2ccccc2/C1=C\\c1ccc2cccccc1-2",
    "measured on": "human VEGFR-2 (Val789-Val1356) (Homo sapiens, UniProt P35968)",
    "inhibition at 1 µM, %": 22.1
  },
  {
    "smiles": "O=C1Nc2ccc(F)cc2/C1=C\\c1cc(Br)c2cccccc1-2",
    "measured on": "human VEGFR-2 (Val789-Val1356) (Homo sapiens, UniProt P35968)",
    "inhibition at 1 µM, %": 26.4
  },
  {
    "smiles": "Cc1cc(C)c2ccc(/C=C3/C(=O)Nc4ccccc43)c-2c(C)c1",
    "measured on": "human VEGFR-2 (Val789-Val1356) (Homo sapiens, UniProt P35968)",
    "inhibition at 1 µM, %": 33.4
  },
  {
    "smiles": "O=C1Nc2ccc(-c3ccccc3)cc2/C1=C/c1ccc2cccccc1-2",
    "measured on": "human VEGFR-2 (Val789-Val1356) (Homo sapiens, UniProt P35968)",
    "inhibition at 1 µM, %": 18.2
  },
  {
    "smiles": "Cc1cc(C=C2C(=O)Nc3ccccc32)c2ccccc(OCCCN(C)C)c1-2",
    "measured on": "human VEGFR-2 (Val789-Val1356) (Homo sapiens, UniProt P35968)",
    "inhibition at 1 µM, %": 80.3
  },
  {
    "smiles": "Cc1cc(/C=C2/C(=O)Nc3ccc(F)cc32)c2cccccc1-2",
    "measured on": "human VEGFR-2 (Val789-Val1356) (Homo sapiens, UniProt P35968)",
    "inhibition at 1 µM, %": 8.4
  }
]

For every item in the list below, what is its measured inhibition at 1 µM?
1. COc1ccc2c(c1)/C(=C/c1ccc3cccccc1-3)C(=O)N2
2. O=C1Nc2ccc(F)cc2/C1=C/c1cc(F)c2cccccc1-2
3. O=C1Nc2ccc(F)cc2/C1=C\c1cc2cccccc-2c1F
4. CN(C)Cc1cc(/C=C2/C(=O)Nc3ccccc32)c2cccccc1-2
5. COc1ccc2c(c1)/C(=C\c1ccc3cccccc1-3)C(=O)N2
6. O=C1C(=Cc2ccc3cccccc2-3)c2ccccc2N1Cc1ccccc1

1: 38.4; 2: 40.3; 3: 34.2; 4: 23.8; 5: 6.8; 6: 10.3

For every item in the list below, what is its measured inhibition at 1 µM?
1. O=C1Nc2ccc(F)cc2/C1=C/c1cc(Br)c2cccccc1-2
2. O=C1Nc2ccc(F)cc2/C1=C\c1ccc2cccccc1-2
3. CCc1cc(C=C2C(=O)Nc3ccc(S(=O)(=O)NCCCN4CCN(C)CC4)cc32)c2cccccc1-2
4. CCN(CC)CCCOc1ccccc2c(C=C3C(=O)Nc4ccc(F)cc43)cc(C)c1-2
5. O=C1Nc2ccc(F)cc2/C1=C/c1cc2cccccc-2c1

1. 41.9
2. 45.7
3. 26.7
4. 32.8
5. 30.4

I'd like to know its inhibition at 1 µM. The compound in question is CCOC(=O)N1CCC(Nc2ccc3c(c2)NC(=O)/C3=C/c2cc(C)c3c(OCCCN(C)C)ccccc2-3)CC1
41.8

====

molecular target: human PDGFRβ (Gln557-Leu1106) (Homo sapiens, UniProt P09619); construct: human PDGFRβ (Gln557-Leu1106); GST (N); purchased Cell Signaling Technology; host or cells: baculovirus expression system; assay: PDGFR-beta kinase assay (HTScan kit, DELFIA); assay type: biochemical; details: compound at 10 μM
Sequence (P09619 557-1106): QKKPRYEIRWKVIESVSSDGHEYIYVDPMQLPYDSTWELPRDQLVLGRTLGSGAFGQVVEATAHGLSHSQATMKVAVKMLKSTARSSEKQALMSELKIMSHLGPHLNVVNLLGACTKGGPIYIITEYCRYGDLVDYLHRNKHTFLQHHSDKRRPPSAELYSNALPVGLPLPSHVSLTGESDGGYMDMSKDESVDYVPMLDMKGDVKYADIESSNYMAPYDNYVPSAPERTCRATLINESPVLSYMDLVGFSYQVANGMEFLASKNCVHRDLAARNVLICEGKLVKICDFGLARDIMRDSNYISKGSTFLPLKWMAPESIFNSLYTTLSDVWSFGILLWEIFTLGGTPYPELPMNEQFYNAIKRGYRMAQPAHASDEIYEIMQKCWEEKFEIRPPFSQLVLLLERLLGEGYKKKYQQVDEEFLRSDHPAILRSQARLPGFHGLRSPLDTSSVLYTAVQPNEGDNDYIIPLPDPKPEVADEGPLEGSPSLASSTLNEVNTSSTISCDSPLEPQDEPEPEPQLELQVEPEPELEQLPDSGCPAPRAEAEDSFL
Task for the reader: assign each of the following compounds its reported PDGFR-β 10 μM, % of inhibition relative to control.
Numbers only, in %.

These solved cases illustrate the format of a correct answer.
[
  {
    "compound": "COC(=O)c1cc(/C=C2\\C(=O)Nc3ccccc32)c2cccccc1-2 [Compound 16]",
    "measured on": "human PDGFRβ (Gln557-Leu1106) (Homo sapiens, UniProt P09619)",
    "result number": 3.6
  },
  {
    "compound": "Cc1cc(C)c2ccc(/C=C3/C(=O)N(Cc4ccccc4)c4ccccc43)c-2c(C)c1 [Compound 10]",
    "measured on": "human PDGFRβ (Gln557-Leu1106) (Homo sapiens, UniProt P09619)",
    "result number": 18.6
  }
]

For every item in the list below, what is its measured PDGFR-β 10 μM, % of inhibition relative to control?
1. O=C1C(=Cc2ccc3cccccc2-3)c2ccccc2N1Cc1ccccc1 [Compound 2]
2. Cc1cc(C)c2ccc(/C=C3/C(=O)Nc4ccccc43)c-2c(C)c1 [Compound 9]

1: 3.6; 2: 14.7

I'd like to know its PDGFR-β 10 μM, % of inhibition relative to control. The compound in question is O=C1Nc2ccc(Br)cc2/C1=C\c1ccc2cccccc1-2 [Compound 7]
4.7

====

molecular target: human VEGFR-2 (Val789-Val1356) (Homo sapiens); construct: human VEGFR-2 (Val789-Val1356); GST (N); purchased Cell Signaling Technology; host or cells: baculovirus expression system; assay: KDR kinase assay (HTScan VEGFR-2 kit, DELFIA); format: biochemical; conditions: compound at 1 μM; read-out: KDR 1 μM, % of inhibition relative to control
Please enter 1 where inhibition at 1 µM is greater than or equal to 20%, and -1 where it is lower.

Take a look at these entries with their results.
[
  {
    "compound": "O=C1Nc2ccc(F)cc2/C1=C/c1c(Br)c2cccccc-2c1Br",
    "measured on": "human VEGFR-2 (Val789-Val1356) (Homo sapiens)",
    "class name": 1
  },
  {
    "compound": "Cc1cc(/C=C2/C(=O)N(Cc3ccc(C#N)cc3)c3ccccc32)c2c(C)ccc(C(C)C)cc1-2",
    "measured on": "human VEGFR-2 (Val789-Val1356) (Homo sapiens)",
    "class name": 1
  }
]

Evaluate O=C1Nc2ccccc2/C1=C\c1c2cccccc-2[nH]c1=O : inhibition at 1 µM at minimum 20%?
1

Evaluate O=C1Nc2ccccc2/C1=C\c1cc2cccccc-2c1 : inhibition at 1 µM at minimum 20%?
-1

Evaluate COC(=O)C1C2=CC=CC=C(OC)C2=C(/C=C2\C(=O)Nc3ccc(F)cc32)C1OC (stereo not drawn) : inhibition at 1 µM at minimum 20%?
1

Evaluate CNS(=O)(=O)c1ccc2c(c1)/C(=C\c1cc(C)c3c(OCCCN(C)C)ccccc1-3)C(=O)N2 : inhibition at 1 µM at minimum 20%?
-1

Evaluate O=C1Nc2ccc(Br)cc2/C1=C\c1ccc2cccccc1-2 : inhibition at 1 µM at minimum 20%?
1
